# TESTED_SYSTEM: Human AMPK α2β2γ1 (Homo sapiens, UniProt O43741+P54646)
# Construct: The full length cDNAs of human AMPK β2 (NM_005399.3) and human AMPK α2 (NM_006252.3); The full length cDNAs of human AMPK β2 (NM_005399.3); the full length cDNA of human AMPK γ1 (NM_002733.3) had been inserted into pET28b(+); 6xHis (N); made in house; host or cells: Escherichia coli BL21 CodonPlus (DE3)-RTL (AMPK); BL21 Star (DE3) (CaMKKβ)
# Sequence (P54646 whole entry): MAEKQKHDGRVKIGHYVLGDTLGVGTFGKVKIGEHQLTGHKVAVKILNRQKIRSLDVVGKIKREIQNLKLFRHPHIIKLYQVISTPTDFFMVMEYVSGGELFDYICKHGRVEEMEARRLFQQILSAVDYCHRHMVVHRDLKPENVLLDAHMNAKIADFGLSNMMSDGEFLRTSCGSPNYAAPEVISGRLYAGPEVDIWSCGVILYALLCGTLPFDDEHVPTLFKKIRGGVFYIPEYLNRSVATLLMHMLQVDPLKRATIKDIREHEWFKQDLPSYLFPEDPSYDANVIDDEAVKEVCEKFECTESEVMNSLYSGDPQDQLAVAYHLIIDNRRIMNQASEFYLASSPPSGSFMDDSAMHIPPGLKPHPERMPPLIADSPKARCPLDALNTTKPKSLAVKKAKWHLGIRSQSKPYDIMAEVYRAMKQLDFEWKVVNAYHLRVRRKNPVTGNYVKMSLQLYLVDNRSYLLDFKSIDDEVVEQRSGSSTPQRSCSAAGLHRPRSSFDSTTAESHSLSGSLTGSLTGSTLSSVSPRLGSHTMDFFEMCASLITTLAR
# Sequence (O43741 whole entry): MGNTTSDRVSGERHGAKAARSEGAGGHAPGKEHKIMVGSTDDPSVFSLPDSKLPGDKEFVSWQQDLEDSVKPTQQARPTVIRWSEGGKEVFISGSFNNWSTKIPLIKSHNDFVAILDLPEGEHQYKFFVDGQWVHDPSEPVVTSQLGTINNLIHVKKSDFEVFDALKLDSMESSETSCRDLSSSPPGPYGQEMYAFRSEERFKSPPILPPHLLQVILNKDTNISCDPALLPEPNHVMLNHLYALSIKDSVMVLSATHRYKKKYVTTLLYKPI
# Sequence (P54619 whole entry partner): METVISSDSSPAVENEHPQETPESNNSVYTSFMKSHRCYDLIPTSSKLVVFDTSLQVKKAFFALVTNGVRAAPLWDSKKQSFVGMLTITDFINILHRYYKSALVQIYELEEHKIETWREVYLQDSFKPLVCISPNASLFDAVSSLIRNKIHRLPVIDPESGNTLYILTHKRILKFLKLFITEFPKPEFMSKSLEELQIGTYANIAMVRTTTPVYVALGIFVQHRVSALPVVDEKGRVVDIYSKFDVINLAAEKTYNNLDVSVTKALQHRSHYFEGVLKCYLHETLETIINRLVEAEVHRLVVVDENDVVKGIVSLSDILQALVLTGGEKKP
# EXPERIMENT: Test Example 2: evaluation of an activator for AMP-activated protein kinase (AMPK), human AMPK α2β2γ1 phosphorylated with CaMKK2, FL-Peptide 7 mobility shift
# Assay type: biochemical
# EXPERIMENTAL_SETUP: human AMPK α2β2γ1, relative to control (100%); read-out: Emax (maximum rate of increase in activity within the measurement range)
Quick reference: Emax of the listed items.

[
  {
    "COMPOUND": "CN(C)CCOc1ccc(-c2ccc(-c3nc4c(C#N)c(O[C@@H]5CO[C@H]6[C@@H]5OC[C@H]6O)[nH]c4cc3Cl)cc2)cc1",
    "RESULT_UNITS": "%",
    "Emax": 859
  },
  {
    "COMPOUND": "O=C(CO)NCCCOc1ccc(-c2nc3cc(O[C@@H]4CO[C@H]5[C@@H]4OC[C@H]5O)[nH]c3cc2F)cc1",
    "RESULT_UNITS": "%",
    "Emax": 505
  },
  {
    "COMPOUND": "N#Cc1cc2[nH]c(O[C@@H]3CO[C@H]4[C@@H]3OC[C@H]4O)cc2nc1-c1ccc(N2CCOCC2)cc1F",
    "RESULT_UNITS": "%",
    "Emax": 481
  },
  {
    "COMPOUND": "COc1cc(C2=CCOCC2)ccc1-c1nc2cc(O[C@@H]3CO[C@H]4[C@@H]3OC[C@H]4O)[nH]c2cc1F",
    "RESULT_UNITS": "%",
    "Emax": 500
  },
  {
    "COMPOUND": "Cn1cc(-c2ccc(-c3nc4cc(O[C@@H]5CO[C@H]6[C@@H]5OC[C@H]6O)[nH]c4cc3F)cc2)cn1",
    "RESULT_UNITS": "%",
    "Emax": 493
  },
  {
    "COMPOUND": "O[C@@H]1CO[C@H]2[C@@H]1OC[C@H]2Oc1cc2nc(-c3c(F)cc(C4=CCOCC4)cc3F)c(F)cc2[nH]1",
    "RESULT_UNITS": "%",
    "Emax": 647
  },
  {
    "COMPOUND": "O=C(O)C1CC=C(c2cc(F)c(-c3nc4cc(O[C@H]5CCOC5)[nH]c4cc3Cl)c(F)c2)CC1 (stereo partly drawn)",
    "RESULT_UNITS": "%",
    "Emax": 341
  },
  {
    "COMPOUND": "CC(=O)Nc1nc(-c2ccc(-c3nc4cc(O[C@@H]5CO[C@H]6[C@@H]5OC[C@H]6O)[nH]c4cc3F)cc2)cs1",
    "RESULT_UNITS": "%",
    "Emax": 391
  },
  {
    "COMPOUND": "O[C@@H]1CO[C@H]2[C@@H]1OC[C@H]2Oc1cc2nc(-c3ccc(N4CCOCC4)cc3)c(F)cc2[nH]1",
    "RESULT_UNITS": "%",
    "Emax": 788
  },
  {
    "COMPOUND": "CNS(=O)(=O)Nc1ccc(-c2ccc(-c3nc4cc(O[C@@H]5CO[C@H]6[C@@H]5OC[C@H]6O)[nH]c4cc3F)cc2)cc1",
    "RESULT_UNITS": "%",
    "Emax": 431
  },
  {
    "COMPOUND": "O=C(CO)N1CC=C(c2ccc(-c3nc4cc(O[C@@H]5CO[C@H](CO)C5)[nH]c4cc3F)cc2)CC1",
    "RESULT_UNITS": "%",
    "Emax": 511
  },
  {
    "COMPOUND": "CS(C)(=O)=Nc1ccc(-c2ccc(-c3nc4cc(O[C@@H]5CO[C@H]6[C@@H]5OC[C@H]6O)[nH]c4cc3F)c(F)c2)cc1",
    "RESULT_UNITS": "%",
    "Emax": 510
  }
]

----------
# TESTED_SYSTEM: Human AMPK α2β2γ1 (Homo sapiens, UniProt O43741+P54646)
# Construct: The full length cDNAs of human AMPK β2 (NM_005399.3) and human AMPK α2 (NM_006252.3); The full length cDNAs of human AMPK β2 (NM_005399.3); the full length cDNA of human AMPK γ1 (NM_002733.3) had been inserted into pET28b(+); 6xHis (N); made in house; host or cells: Escherichia coli BL21 CodonPlus (DE3)-RTL (AMPK); BL21 Star (DE3) (CaMKKβ)
# EXPERIMENT: Test Example 2: evaluation of an activator for AMP-activated protein kinase (AMPK), human AMPK α2β2γ1 phosphorylated with CaMKK2, FL-Peptide 7 mobility shift
# Assay type: biochemical
# EXPERIMENTAL_SETUP: human AMPK α2β2γ1, 0.2 mM ATP final, 25° C., 2 hours
Quick reference: EC150 (compound concentration showing 150% relative to the control (100%)) of the listed items.
RESULT_TYPE: EC150 (compound concentration showing 150% relative to the control (100%)) (nM)

[
  {
    "COMPOUND": "N#Cc1cc2[nH]c(O[C@@H]3CO[C@H]4[C@@H]3OC[C@H]4O)cc2nc1-c1ccc(N2CCOCC2)cc1F",
    "RESULT_VALUE": 48
  },
  {
    "COMPOUND": "CS(=O)(=NCCO)c1ccc(-c2ccc(-c3nc4cc(O[C@@H]5CO[C@H]6[C@@H]5OC[C@H]6O)[nH]c4cc3F)cc2)cc1 (stereo partly drawn)",
    "RESULT_VALUE": 3.1
  },
  {
    "COMPOUND": "COC(=O)Nc1ccc(-c2ccc(-c3nc4cc(O[C@@H]5CO[C@H]6[C@@H]5OC[C@H]6O)[nH]c4cc3F)cc2)cc1",
    "RESULT_VALUE": 10
  }
]

----------
# TESTED_SYSTEM: Human AMPK α2β2γ1 (Homo sapiens, UniProt O43741+P54646)
# Construct: The full length cDNAs of human AMPK β2 (NM_005399.3) and human AMPK α2 (NM_006252.3); The full length cDNAs of human AMPK β2 (NM_005399.3); the full length cDNA of human AMPK γ1 (NM_002733.3) had been inserted into pET28b(+); 6xHis (N); made in house; host or cells: Escherichia coli BL21 CodonPlus (DE3)-RTL (AMPK); BL21 Star (DE3) (CaMKKβ)
# EXPERIMENT: Test Example 2: evaluation of an activator for AMP-activated protein kinase (AMPK), human AMPK α2β2γ1 phosphorylated with CaMKK2, FL-Peptide 7 mobility shift
# Assay type: biochemical
# EXPERIMENTAL_SETUP: human AMPK α2β2γ1, 0.2 mM ATP final, 25° C., 2 hours
Quick reference: EC150 (compound concentration showing 150% relative to the control (100%)) of the listed items.
RESULT_TYPE: EC150 (compound concentration showing 150% relative to the control (100%)) (nM)

[
  {
    "COMPOUND": "CN=S(C)(=O)c1ccc(-c2ccc(-c3nc4cc(O[C@@H]5CO[C@H]6[C@@H]5OC[C@H]6O)[nH]c4cc3C(F)(F)F)cc2)cc1 (stereo partly drawn)",
    "TESTED_SYSTEM": "Human AMPK α2β2γ1 (Homo sapiens, UniProt O43741+P54646)",
    "RESULT_VALUE": 9.5
  },
  {
    "COMPOUND": "CN=S(C)(=O)c1ccc(-c2ccc(-c3nc4cc(O[C@@H]5CO[C@H]6[C@@H]5OC[C@H]6O)[nH]c4cc3F)cc2)cc1 (stereo partly drawn)",
    "TESTED_SYSTEM": "Human AMPK α2β2γ1 (Homo sapiens, UniProt O43741+P54646)",
    "RESULT_VALUE": 1.4
  },
  {
    "COMPOUND": "OC[C@@H]1C[C@H](Oc2cc3nc(-c4c(F)cc(N5CCOCC5)cc4F)c(Cl)cc3[nH]2)CO1",
    "TESTED_SYSTEM": "Human AMPK α2β2γ1 (Homo sapiens, UniProt O43741+P54646)",
    "RESULT_VALUE": 22
  },
  {
    "COMPOUND": "O[C@@H]1CO[C@H]2[C@@H]1OC[C@H]2Oc1cc2nc(-c3ccc(N4CCOCC4)cc3)c(Cl)c(F)c2[nH]1",
    "TESTED_SYSTEM": "Human AMPK α2β2γ1 (Homo sapiens, UniProt O43741+P54646)",
    "RESULT_VALUE": 6.9
  },
  {
    "COMPOUND": "C/C(=C\\CNC(=O)CO)c1ccc(-c2nc3c(Cl)c(O[C@@H]4CO[C@H]5[C@@H]4OC[C@H]5O)[nH]c3cc2Cl)cc1",
    "TESTED_SYSTEM": "Human AMPK α2β2γ1 (Homo sapiens, UniProt O43741+P54646)",
    "RESULT_VALUE": 6.3
  },
  {
    "COMPOUND": "CS(=O)(=O)c1ccc(-c2ccc(-c3nc4cc(O[C@@H]5CO[C@H]6[C@@H]5OC[C@H]6O)[nH]c4cc3F)cc2)nc1",
    "TESTED_SYSTEM": "Human AMPK α2β2γ1 (Homo sapiens, UniProt O43741+P54646)",
    "RESULT_VALUE": 1.4
  }
]
